target: IGF-1 receptor on the cells of the PathHunter IGF1R Functional Assay (DiscoverX) (UniProt P08069 31-1367); experiment: cell-based or functional assay
Sequence (P08069 31-1367): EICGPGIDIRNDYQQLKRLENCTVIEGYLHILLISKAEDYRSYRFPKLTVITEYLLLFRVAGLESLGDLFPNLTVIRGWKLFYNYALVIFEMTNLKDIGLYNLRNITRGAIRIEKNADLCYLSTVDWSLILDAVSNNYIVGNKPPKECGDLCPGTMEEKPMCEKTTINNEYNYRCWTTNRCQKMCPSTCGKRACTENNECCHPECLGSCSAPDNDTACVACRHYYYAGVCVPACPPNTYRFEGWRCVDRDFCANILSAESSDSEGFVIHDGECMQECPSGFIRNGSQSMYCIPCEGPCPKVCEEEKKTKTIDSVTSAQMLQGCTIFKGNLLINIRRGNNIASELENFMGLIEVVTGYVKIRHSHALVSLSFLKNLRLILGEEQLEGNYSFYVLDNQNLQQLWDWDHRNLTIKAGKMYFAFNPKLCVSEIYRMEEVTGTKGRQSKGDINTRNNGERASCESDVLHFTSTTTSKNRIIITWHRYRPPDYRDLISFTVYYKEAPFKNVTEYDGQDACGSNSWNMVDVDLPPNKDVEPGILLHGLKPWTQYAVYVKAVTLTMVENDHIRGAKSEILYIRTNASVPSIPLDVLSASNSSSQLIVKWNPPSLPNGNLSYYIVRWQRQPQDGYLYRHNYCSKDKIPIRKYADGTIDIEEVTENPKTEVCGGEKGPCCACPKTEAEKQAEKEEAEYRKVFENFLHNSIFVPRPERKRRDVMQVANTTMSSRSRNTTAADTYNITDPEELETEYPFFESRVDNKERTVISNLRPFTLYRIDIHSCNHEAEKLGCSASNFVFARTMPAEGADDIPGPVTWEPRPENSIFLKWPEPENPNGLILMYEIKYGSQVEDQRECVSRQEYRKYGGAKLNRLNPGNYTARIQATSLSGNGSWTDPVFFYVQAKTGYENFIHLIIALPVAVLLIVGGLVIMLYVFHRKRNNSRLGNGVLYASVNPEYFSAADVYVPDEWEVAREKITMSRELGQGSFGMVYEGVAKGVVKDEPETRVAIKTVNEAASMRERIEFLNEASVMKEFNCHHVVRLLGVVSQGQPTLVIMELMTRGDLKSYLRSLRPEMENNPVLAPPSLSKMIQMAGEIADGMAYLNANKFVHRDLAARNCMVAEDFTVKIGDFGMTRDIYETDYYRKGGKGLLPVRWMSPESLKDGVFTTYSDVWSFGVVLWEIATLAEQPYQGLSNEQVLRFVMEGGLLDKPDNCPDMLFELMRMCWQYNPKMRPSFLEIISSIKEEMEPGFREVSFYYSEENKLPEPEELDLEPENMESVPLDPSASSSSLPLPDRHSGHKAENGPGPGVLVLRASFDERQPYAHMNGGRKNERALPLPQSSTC
value type: Ratio of activation intensity, PathHunter

{"binder": "FW1_var9 antibody (antibody, V domains shown) VH: QVQLVQSGAEVKKPGASVKVSCKASGYTFTSYWMHWVRQAPGQGLEWMGETNPSNSVTNYAQKFQGRVTLTVDTSTSTAYMELSSLRSEDTAVYYCTIGRGRGFAYWGQGTLVTVSS VL: DIQMTQSPSSVSASVGDRVTITCRASQNINFWLSWYQQKPGKAPKLLIYKASNLHTGVPSRFSGSGSGTDFTLTISSLQPEDFATYYCLQGQSYPYTFGGGTKLEIK", "reading": "0.67 relative to IGF11-16"}
{"binder": "FW1_var14 antibody (antibody, V domains shown) VH: QVQLVQSGAEVKKPGASVKVSCKASGYTFTSYWMHWVRQAPGQGLEWMGETNPSNSVTNYAQKFQGRVTLTVDTSTSTAYMELSSLRSEDTATYYCTIGRGRGFAYWGQGTLVTVSS VL: DIQMTQSPSSVSASVGDRVTITCRASQNINFWLSWYQQKPGKAPRLLIYKASNLHTGVPSRFSGSGSGTDFTLTISSLQPEDFATYYCLQGQSYPYTFGGGTKLEIK", "reading": "0.62 relative to IGF11-16"}
{"binder": "mouse parent antibody IGF11-16 (antibody, mouse IgG1, kappa, V domains shown) VH: QIQLQQPGAELVKPGASVKLSCKAPGYTFTSYWMHWVKQRPGQGLEWIGETNPSNSVTNYNEKFKSKATLTVDKSSSTAYMQLSSLTSEDSAVYYCTIGRGRGFAYWGQGTLVTVSA VL: DIQMNQSPSSLSASLGDTITITCRASQNINFWLSWCQQKPGNIPKLLIYKASNLHTGVPSRFSGSGSGTDFTLTISSLQPEDIATYYCLQGQSYPYTFGGGTKLEIKR", "reading": "1 relative to IGF11-16"}
